src = patent US20240400638A1

Target: T1, human RXFP1 (human, UniProt Q9HBX9 1-757)
T1 sequence (looked up): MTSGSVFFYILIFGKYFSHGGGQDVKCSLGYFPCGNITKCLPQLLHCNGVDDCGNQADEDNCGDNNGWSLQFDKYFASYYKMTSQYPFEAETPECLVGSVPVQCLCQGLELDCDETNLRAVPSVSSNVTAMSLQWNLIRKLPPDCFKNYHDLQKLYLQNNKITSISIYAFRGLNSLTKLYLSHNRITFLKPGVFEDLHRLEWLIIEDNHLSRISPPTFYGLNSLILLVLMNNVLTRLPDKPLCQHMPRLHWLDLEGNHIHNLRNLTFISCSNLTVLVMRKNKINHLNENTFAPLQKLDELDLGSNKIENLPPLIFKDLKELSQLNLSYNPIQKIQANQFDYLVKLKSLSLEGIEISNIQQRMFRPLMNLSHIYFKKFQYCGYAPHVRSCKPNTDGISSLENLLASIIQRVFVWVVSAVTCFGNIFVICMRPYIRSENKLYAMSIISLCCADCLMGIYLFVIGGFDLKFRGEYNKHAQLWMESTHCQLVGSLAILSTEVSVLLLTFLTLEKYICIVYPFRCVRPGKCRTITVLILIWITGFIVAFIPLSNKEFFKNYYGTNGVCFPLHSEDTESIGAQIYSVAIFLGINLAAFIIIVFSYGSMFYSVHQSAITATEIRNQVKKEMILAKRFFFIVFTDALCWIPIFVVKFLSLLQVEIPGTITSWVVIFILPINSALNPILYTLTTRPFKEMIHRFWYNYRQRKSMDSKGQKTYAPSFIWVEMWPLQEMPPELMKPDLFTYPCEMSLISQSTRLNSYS
Assay: cell-based or functional assay
Numbered stars: 1 amine (or outer) side, 2 acyl side, 3 side chain; on linkers, the order of the positions; unused ones are H or OH. Square brackets hold non-standard residues; d marks the D form. Side chains are listed from the residue outwards. * marks the point of attachment. TTDS = 4-[3-[2-[2-(3-aminopropoxy)ethoxy]ethoxy]propylamino]-4-oxo-butanoyl; γGlu = O=C(O)[C@H](CCC(=O)[*:2])N[*:1]; Palmitoyl = CCCCCCCCCCCCCCCC(=O)*; Myristoyl = CCCCCCCCCCCCCC(=O)*; αMeK = C[C@](N)(CCCCN)C(=O)O; Aib = CC(C)(N)C(=O)O
Here the recorded EC50 (nM), OVCAR 5 cells (cAMP) is given for each entry.
Dear colleague, please return just the value in nM, with no unit written.

// solved cases for EC50 (nM), OVCAR 5 cells (cAMP) follow
Ac-LEGREKVRAK(Ac)I[Aib][Aib]EGK([TTDS-TTDS-TTDS-γGlu-γGlu-γGlu-γGlu-Myristoyl])STFS[αMeK]RAK-NH2 [Relaxin peptide analogue of SEQ ID NO: 97] ... 0.29
Ac-LEGRERVRAK(Ac)I[Aib][Aib]EGK([TTDS-TTDS-TTDS-TTDS-γGlu-γGlu-γGlu-Palmitoyl])STFS[Aib]RRK(Ac)-NH2 [Relaxin peptide analogue of SEQ ID NO: 77] ... 0.11
Ac-LEGREKVR[Aib]K(Ac)I[Aib][Aib]EGK([TTDS-TTDS-TTDS-γGlu-γGlu-γGlu-Palmitoyl])STFS[αMeK]RAK(Ac)-NH2 [Relaxin peptide analogue of SEQ ID NO: 29] ... 1.6

Record Ac-LEGREKVRAK(Ac)I[Aib][Aib]EGK([TTDS-TTDS-TTDS-γGlu-γGlu-γGlu-Palmitoyl])STWK(Ac)[Aib]RAK(Ac)-NH2 [Relaxin peptide analogue of SEQ ID NO: 66] . Reported EC50 (nM), OVCAR 5 cells (cAMP): 6.31
